ASSAY PROCEDURE: chemical genetic growth profiling, strain panel (AID 1159580);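 further: tested at 20 µM; growth read once vehicle control cultures reached saturation at 30 °C; 1 = growth at the plate median or of vehicle wells; lower values mean less growth of the strain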
RUN CONDITIONS: S. cerevisiae deletion strains, growth OD, locus YJL129C, strain trk1, active compounds read low
The campaign covered roughly 5,500 compounds. About 2,000 (36%) were called active. About 18% were inconclusive and are not listed. The list shows a part of the results. Where a SMILES comes first, the peptide text is derived from it.
Parameter normalized growth: see the listing below.

MOLECULE	normalized growth
C[C@]12C=CC(=O)C=C1CCC1C2[C@@H](O)C[C@@]2(C)C1CC[C@]2(O)C(=O)CO (some centres undefined)	0.977
NCCCNCCSP(=O)(O)O	1
COc1ccc(-c2oc3cc(OC)c(OC)c(OC)c3c(=O)c2OC)cc1	0.907
CC(=O)Oc1c2c(c(CC=C(C)C)c3c1C(=O)C1=C[C@@H]4CC5C(C)(C)OC(C/C=C(\C)C(=O)O)(C4=O)[C@@]15O3)OC(C)(CCC=C(C)C)C=C2 (some centres undefined)	0.76
Fc1ccc([C@@H]2CCNC[C@H]2COc2ccc3c(c2)OCO3)cc1	0.987
CC1CCC(NC(=O)N(CCCl)N=O)CC1 (centres undefined)	0.196
CC(=O)Oc1ccc2c(c1)CCC1C2CC[C@]2(C)C(=O)CCC12 (some centres undefined)	0.984
c1ccc2c(CC3=NCCN3)cccc2c1	0.921
Cc1nnc(NS(=O)(=O)c2ccc(N)cc2)s1	0.997
CC(=O)N[C@@H](CCC(=O)O)C(=O)O	1.04
COc1ccc2c(c1)OCC(Cc1ccc(OC)c(O)c1)C2=O (centres undefined)	0.886
O=c1[nH]c(=O)n(C2C[C@H](O)[C@@H](CO)O2)cc1C(F)(F)F (some centres undefined)	0.916
CC12CCC3C(=CCc4cc(O)ccc43)C1CCC2=O (centres undefined)	0.965
C[C@]12CCC3c4ccc(OC(=O)c5ccccc5)cc4CCC3C1CCC2=O (some centres undefined)	0.979
COc1cc2c(cc1OC)C1(O)C(=O)c3ccc(O)c(C(=O)O)c3OC1CO2 (centres undefined)	0.972
COC(=O)/C(C)=C\CC12OC(C)(C)C3CC(C=C4C(=O)c5c(OC)c6c(c(CC=C(C)C)c5OC431)OC(C)(CCC=C(C)C)C=C6)C2=O (centres undefined)	0.987
CC(=O)N[C@@H](CC(=O)O)C(=O)N[C@@H](CCC(=O)O)C(=O)O (Ac-Asp-Glu-OH)	1.01
CN(C/C=C/C#CC(C)(C)C)Cc1cccc2ccccc12	0.351
CC(C)(S)[C@@H](N)C(=O)O	0.987
COc1ccc2oc3ccccc3c(=O)c2c1	0.921
CCCCCCCCCCCCCC(=O)OC1C(C)C2(O)C(C=C(CO)CC3(O)C(=O)C(C)=CC32)C2C(C)(C)C12OC(C)=O (centres undefined)	0.962
COc1cc(C)c2c(=O)cc(-c3ccccc3)oc2c1	0.833
COP(=S)(OC)Oc1ccc(Sc2ccc(OP(=S)(OC)OC)cc2)cc1	1.02
C[C@H]1C[C@@H](O)[C@]2(O)[C@@]13CC(=O)OC[C@@]2(C)[C@](C)(O)C(=O)C3	1.06
O=C(O)C(O)C(O)C(=O)O (centres undefined)	0.98
CC(C)=CC1C(C(=O)OCc2cccc(Oc3ccccc3)c2)C1(C)C (centres undefined)	1.03
NCC[C@@H](O)C(=O)N[C@@H]1C[C@H](N)[C@@H](O[C@H]2O[C@H](CN)[C@@H](O)[C@H](O)[C@H]2O)[C@H](O)[C@H]1O[C@H]1O[C@H](CO)[C@@H](O)[C@H](N)C1O (some centres undefined)	1.07
Cc1onc(-c2ccccc2)c1-c1ccc(S(N)(=O)=O)cc1	0.972
COc1ccc2c(c1)OCC(Cc1ccc(OC)c(OC)c1)C2=O (centres undefined)	0.892
COc1ccc2c(c1)OCC(Cc1ccc(O)c(OC)c1)C2=O (centres undefined)	0.943
NCCCCC(=O)O	1.03
Cc1cc(/C=C/c2ccc3cc(N(C)C)ccc3[n+]2C)c(C)n1-c1ccccc1	0.373
COP(=S)(OC)Oc1ccc([N+](=O)[O-])cc1	0.988
CCCn1c(=O)c2[nH]c(C3CCCC3)nc2n(CCC)c1=O	0.943
CCC(=O)OC1[C@@H]2CC3=C4CC(=O)O[C@@H](c5ccoc5)[C@]4(C)CCC3[C@@](C)(C2=O)[C@@H](CC(=O)OC)C1(C)C (some centres undefined)	0.974
CC(=O)OC/C=C(\C)CC/C=C(\C)CC/C=C(\C)CC/C=C(\C)CC/C=C(\C)CC/C=C(\C)CC/C=C(\C)CC/C=C(\C)CCC=C(C)C	0.931
CC(C)/C(O)=C1/C(=O)O[C@@H](c2ccoc2)[C@]2(C)C(O)[C@@H](O)[C@@]34OC5(C)OC67CC(C)(C(O)[C@]6(O)[C@@H](O)[C@]3(O5)C12)[C@H](CC(=O)O)[C@]74C (some centres undefined)	0.997
CN[C@@H]1C(OC2[C@H](O[C@H]3[C@H](O)[C@@H](O)[C@H](N=C(N)N)[C@@H](O)[C@@H]3N=C(N)N)OC(C)[C@]2(O)CO)OC(CO)C(O)C1O (some centres undefined)	0.981
COC[C@]12CN(C=O)C3[C@@H]4[C@H](OC)C1[C@]3(C1CC3(O)C(OC)C(O)C4(OC(C)=O)C1C3OC(=O)c1ccccc1)[C@@H](OC)C[C@H]2O (some centres undefined)	1.02

====

ASSAY PROCEDURE: chemical genetic growth profiling, strain panel (AID 1159580);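 further: tested at 20 µM; growth read once vehicle control cultures reached saturation at 30 °C; 1 = growth at the plate median or of vehicle wells; lower values mean less growth of the strain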
RUN CONDITIONS: S. cerevisiae deletion strains, growth OD, locus YDL005C, strain med2
The campaign covered roughly 5,500 compounds. About 2,000 (36%) were called active. Not shown: some 18% with an inconclusive outcome. No stated cut-off is given here; in the data, active means normalized growth mostly below about 0.91 (no sharp cut-off); inconclusive means no clear call, values can overlap the other calls; inactive means mostly above about 0.92. The list shows a part of the results.
Classes used: active, inactive

MOLECULE	CLASS LABEL
O=C(O)C1CCCNC1 (configuration not stated)	inactive
CC12CCCCC1(Br)[N+](=O)N2[O-] (configuration not stated)	inactive
NCC[C@@H](O)C(=O)N[C@@H]1C[C@H](N)[C@@H](O[C@H]2O[C@H](CN)[C@@H](O)[C@H](O)[C@H]2O)[C@H](O)[C@H]1O[C@H]1O[C@H](CO)[C@@H](O)[C@H](N)C1O (some centres not stated)	inactive
Clc1ccc(COC(Cn2ccnc2)c2ccc(Cl)cc2Cl)cc1 (configuration not stated)	active
NCCCCCC(=O)O	inactive
COC(=O)[C@@H]1OC(=O)C2OC23[C@@]1(C)CCC1[C@]2(C)C(C[C@@H](O)[C@]13C)C(C)(C)[C@H](OC(C)=O)C[C@@H]2OC(C)=O (some centres not stated)	inactive
CC1C/C=C/C=C/C=C/C=C/C(O[C@@H]2O[C@H](C)[C@@H](O)[C@H](N)[C@@H]2O)CC2OC(O)(CC(O)CC3OC3/C=C/C(=O)O1)CC(O)C2C(=O)O (some centres not stated)	inactive
CCCCCCCCCCCCCC(=O)OC1C(C)C2(O)C(C=C(CO)CC3(O)C(=O)C(C)=CC32)C2C(C)(C)C12OC(C)=O (configuration not stated)	inactive
Clc1ccc(CO/N=C(/Cn2ccnc2)c2ccc(Cl)cc2Cl)c(Cl)c1	active
C[C@@H]1CC2C3CCC4=CC(=O)C=C[C@]4(C)[C@@]3(F)[C@@H](O)C[C@]2(C)[C@@]1(O)C(=O)CO (some centres not stated)	inactive
Cc1nnc(NS(=O)(=O)c2ccc(N)cc2)s1	inactive
CC1(C)N([O-])[N+](=O)C1(C)Br (configuration not stated)	inactive
C=C[C@@]1(C)CC(=O)[C@@]2(O)[C@](C)(O1)[C@@H](OC(C)=O)[C@@H](O)C1C(C)(C)CC[C@H](O)[C@@]12C (some centres not stated)	inactive
CC1OC(O[C@H]2/C=C/C=C/C=C/C=C/C=C/C=C/C=C/[C@H](C)[C@@H](O)[C@@H](C)[C@H](C)OC(=O)CC(O)CC(O)CCC(O)C(O)CC(O)C[C@]3(O)C[C@H](O)C(C(=O)O)C(C2)O3)C(O)[C@H](N)C1O (some centres not stated)	active
C=C1C(=O)[C@]23[C@H](O)[C@H]1CC[C@H]2[C@@]12CO[C@]3(O)[C@H](O)[C@@H]1C(C)(C)CC[C@@H]2O	inactive
Clc1ccc(COC(Cn2ccnc2)c2ccc(Cl)cc2Cl)c(Cl)c1 (configuration not stated)	active
CN(C)C(=O)Oc1ccc[n+](C)c1	inactive

====

ASSAY PROCEDURE: chemical genetic growth profiling, strain panel (AID 1159580);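 further: tested at 20 µM; growth read once vehicle control cultures reached saturation at 30 °C; 1 = growth at the plate median or of vehicle wells; lower values mean less growth of the strain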
RUN CONDITIONS: S. cerevisiae deletion strains, growth OD, locus YJR075W, strain HOC1
Out of some 5,500 compounds screened, about 2,000 (36%) were called active. About 18% were inconclusive and are not listed. Cut-off read from the data, not from the text of the source: active = normalized growth mostly below about 0.91 (no sharp cut-off); inconclusive = no clear call, values can overlap the other calls; inactive = mostly above about 0.92. This is one part of the list.
Classes used: active, inactive

MOLECULE	CLASS LABEL
O=NN(CCCl)C(=O)NCCCl	inactive
Nc1ccc(Oc2ccc(Cl)cc2C2CCCCC2)nc1	active
O=S(=O)(NCc1ccc2c(c1)OCO2)c1ccc(F)c(Cl)c1	inactive
NCCC1CCCC(CCN)N1 (stereo not drawn)	inactive
NC(=O)N[C@@H]1O[C@H](CO)[C@@H](O)[C@H](O)[C@H]1O	inactive
Fc1ccc([C@@H]2CCNC[C@H]2COc2ccc3c(c2)OCO3)cc1	inactive
Cc1onc(-c2ccccc2Cl)c1C(=O)N1CCCN2C(=O)c3ccccc3C21 (stereo not drawn)	inactive
COc1cscc1C(N)=O	inactive
COC[C@]12CN(C=O)C3[C@@H]4[C@H](OC)C1[C@]3(C1CC3(O)C(OC)C(O)C4(OC(C)=O)C1C3OC(=O)c1ccccc1)[C@@H](OC)C[C@H]2O (stereo partly drawn)	inactive
C[C@]12CC[C@H]3[C@@H](CCC4C[C@H](O)CC[C@@]43C)[C@@H]1CC[C@@H]2O (stereo partly drawn)	inactive
C[C@]12CCC3C(CC[C@H]4C[C@H](O)CC[C@]34C)C1CC[C@@H]2C(=O)CO (stereo partly drawn)	inactive
C=C[C@@]1(C)CC(=O)[C@@]2(O)[C@](C)(O1)[C@@H](OC(C)=O)[C@@H](O)C1C(C)(C)CC[C@H](O)[C@@]12C (stereo partly drawn)	inactive
S=C(S)OC1CC2CC1C1CCCC21 (stereo not drawn)	inactive
O=c1[nH]c(=O)n(C2C[C@H](O)[C@@H](CO)O2)cc1C(F)(F)F (stereo partly drawn)	inactive
COc1cc(OC)c2c(=O)cc(-c3ccccc3)oc2c1	inactive
Cc1ccccc1/C=C/C1=NCCN1	inactive
NC(N)=NCCCCN=C(N)N	inactive
COc1ccc(-c2cc(=O)c3c(OC)cc(OC)cc3o2)cc1	inactive
